- System Tested: 5-HT1A receptor (Rattus norvegicus)
- Construct: a rat brain was homogenized in Tris buffer and centrifuged; from tissue; host or cells: rat brain membrane preparation
- Sequence (P19327 whole entry): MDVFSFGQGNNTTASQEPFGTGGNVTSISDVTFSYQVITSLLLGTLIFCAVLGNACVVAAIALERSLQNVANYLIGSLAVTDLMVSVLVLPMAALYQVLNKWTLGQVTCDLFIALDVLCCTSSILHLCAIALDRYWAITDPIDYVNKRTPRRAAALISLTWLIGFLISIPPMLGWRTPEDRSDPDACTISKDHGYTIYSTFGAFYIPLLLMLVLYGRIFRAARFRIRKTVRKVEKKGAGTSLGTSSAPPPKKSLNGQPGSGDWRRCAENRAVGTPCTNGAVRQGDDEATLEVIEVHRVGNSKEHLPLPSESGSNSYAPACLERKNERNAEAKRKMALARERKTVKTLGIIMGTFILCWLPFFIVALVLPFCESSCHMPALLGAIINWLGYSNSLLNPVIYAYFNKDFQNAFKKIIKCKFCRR
- Assay Method Text: binding assay using [3H]8-OH-DPAT, rat brain membrane preparation
In this section we review reported Ki values for a set of compounds.
Dear colleague, please return just the value in µM, with no unit written.

Take a look at these entries with their results.
- Compound: "O=C(CCCCN1CCN(c2ccccc2)CC1)c1ccc2c(c1)OCO2"
  Observable: "Ki"
  Scale Unit: "µM"
  Data Value: 0.0101
- Compound: "COc1ccc(OCCCN2CCN(c3ccccc3OC)CC2)cc1OC"
  Observable: "Ki"
  Scale Unit: "µM"
  Data Value: 0.0143
- Compound: "FC(F)(F)c1cccc(N2CCN(CCCCOc3ccc4c(c3)OCO4)CC2)c1"
  Observable: "Ki"
  Scale Unit: "µM"
  Data Value: 0.0559
- Compound: "OC(CCCN1CCN(c2ccccc2)CC1)c1ccc2c(c1)OCO2 (centres unmarked)"
  Observable: "Ki"
  Scale Unit: "µM"
  Data Value: 0.008

Could you now consider this next compound?
Returns the measured Ki for the input compound. Input: O=C1c2ccccc2S(=O)(=O)N1CCCCN1CCN(c2ncccn2)CC1 [Ipsapirone, reference compound]
0.0022

Reference source for all entries: patent US5219855A
